Source: paper PMC12164381

Parameter: pKD. Scope: all listed entries.
# MEASURED TARGET: SARS-CoV-2 Spike RBD, original (Wuhan) strain (SARS-CoV-2, original Wuhan strain, UniProt P0DTC2)
# PROTOCOL DESCRIPTION: SPR

>  <BINDER>
Inverse folding design from the DXP-604 starting point (Table 5, design row 2, the 5th table, row 5) (antibody, V domains shown) VH: EVQLVESGGGLIQPGGSLRLSCAASGIIVSRNYMTWVRQAPGKGLEWVSVIYSGGTTFYADSVKGRFTISRDNSKNTLYLQMSSLRAEDTAVYYCARDLAVYGMDVWGQGTTVTVSS VL: DIQLTQSPSFLSASVGDRVTITCRASQGIGSDLAWYQQKPGKAPNLLIYAASTLQSGVPSRFSGSGSGTEFTLTISSLQPEDFATYYCQQLNSDLYTFGQGTKLEIK

>  <TEST READOUT>
pKD

>  <REPORTED RESULT>
10.2 -log10(KD)

$$$$
>  <BINDER>
Inverse folding design from the DXP-604 starting point (Table 5, design row 6, the 5th table, row 9) (antibody, V domains shown) VH: EVQLVESGGGLIQPGGSLRLSCAASGIIVSRNYMTWVRQAPGKGLEWVSVIYSGGSTFYADSVKGRFTISRDNSKNTLYLQMSSLRAEDTAVYYCARDLGPYGMDVWGQGTTVTVSS VL: DIQLTQSPSFLSASVGDRVTITCRASQGIGSDLAWYQQKPGKAPNLLIYAASTLQSGVPSRFSGSGSGTEFTLTISSLQPEDFATYYCQQLNSDLYTFGQGTKLEIK

>  <TEST READOUT>
pKD

>  <REPORTED RESULT>
10 -log10(KD)

$$$$

Exam item: So what does the record say about pKD for Inverse folding design from the DXP-604 starting point (Table 5, design row 1, the 5th table, row 4) (antibody, V domains shown) VH: EVQLVESGGGLIQPGGSLRLSCAASGIIVSRNYMTWVRQAPGKGLEWVSVIYSGGSTFYADSVKGRFTISRDNSKNTLYLQMSSLRAEDTAVYYCARDLGPYGMDVWGQGTTVTVSS VL: DIQLTQSPSFLSASVGDRVTITCRASQGISSDLAWYQQKPGKAPNLLIYAASTLQSGVPSRFSGSGSGTEFTLTISSLQPEDFATYYCQQLMDTLYTFGQGTKLEIK ?
Marked response: 10 -log10(KD)

Exam item: Same read-out for Inverse folding design from the DXP-604 starting point (Table 5, design row 5, the 5th table, row 8) (antibody, V domains shown) VH: EVQLVESGGGLIQPGGSLRLSCAASGIIVSRNYMTWVRQAPGKGLEWVSVIYPGGSTFYADSVKGRFTISRDNSKNTLYLQMSSLRAEDTAVYYCARDLGVYGMDVWGQGTTVTVSS VL: DIQLTQSPSFLSASVGDRVTITCRASQGISSDLAWYQQKPGKAPNLLIYAASTLQSGVPSRFSGSGSGTEFTLTISSLQPEDFATYYCQQLNDYLYTFGQGTKLEIK ?
Marked response: 10.8 -log10(KD)

Exam item: Repeat with Inverse folding design from the DXP-604 starting point (Table 5, design row 3, the 5th table, row 6) (antibody, V domains shown) VH: EVQLVESGGGLIQPGGSLRLSCAASGIIVSRNYMTWVRQAPGKGLEWVSVIYSGGSTFYADSVKGRFTISRDNSKNTLYLQMSSLRAEDTAVYYCARDLGPYGMDVWGQGTTVTVSS VL: DIQLTQSPSFLSASVGDRVTITCRASQGISSDLAWYQQKPGKAPNLLIYAASTLQSGVPSRFSGSGSGTEFTLTISSLQPEDFATYYCQQLNDLLYTFGQGTKLEIK
Marked response: 9.38 -log10(KD)
